- measured_target: phosphorylation levels of ERK1/2 in AsPC-1 (homozygous KRAS-G12D) cells (Homo sapiens, UniProt P01116, G12D)
- Sequence (P01116 1-186 G12D): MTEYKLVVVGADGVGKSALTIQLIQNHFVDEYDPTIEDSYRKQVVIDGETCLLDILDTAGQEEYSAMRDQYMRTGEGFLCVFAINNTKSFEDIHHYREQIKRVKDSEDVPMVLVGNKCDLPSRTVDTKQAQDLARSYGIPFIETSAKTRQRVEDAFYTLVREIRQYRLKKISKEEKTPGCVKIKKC
- experiment_description: Cellular phospho-ERK assay in AsPC-1 cells (Alpha Screen), assay medium without fetal bovine serum;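 also: signal taken as phospho-ERK over total ERK per well, both detected in one multiplex bead assay, EC50 from four-parameter logistic fit of dose-response curves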
- test_settings: phospho-ERK AlphaScreen, 18 h
*1 amine or outer side, *2 acyl side, *3 side chain or, on linkers, in order; H or OH if unused. Where a SMILES comes first, the peptide text is derived from it. Bridges are numbered along the chain shown (N, C = ends). [ ]: non-standard residue; d: D form. Ala(pyrimidin-5-yl) = N[C@@H](Cc1cncnc1)C(=O)O; NMe3Pal(6-Me) = CN[C@@H](Cc1ccc(C)nc1)C(=O)O; NMeHis(τ-Me) = CN[C@@H](Cc1cn(C)cn1)C(=O)O; X25 = O=C([C@H](Cc1ccc(F)nc1)N[*:1])[*:2]; X30 = O=C([C@H](Cc1ncccc1F)N[*:1])[*:2]; X35 = CN([C@@H](CCCF)C(=O)[*:2])[*:1]; Phe(2-F) = N[C@@H](Cc1ccccc1F)C(=O)O; NMe3Pal = CN[C@@H](Cc1cccnc1)C(=O)O; X1 = O=C(C12CC(CN[*:1])(C1)C2)[*:2]; NMeOrn(Me) = CNCCC[C@H](NC)C(=O)O; Ala(cPr) = N[C@@H](CC1CC1)C(=O)O; NMeF = CN[C@@H](Cc1ccccc1)C(=O)O; PhLac = O=C(O)[C@@H](O)Cc1ccccc1; 3Pal = N[C@@H](Cc1cccnc1)C(=O)O; Ahp(2) = CCCCC[C@H](N)C(=O)O; Cba = N[C@@H](CC1CCC1)C(=O)O; hLeu = CC(C)CC[C@H](N)C(=O)O; NMeS = CN[C@@H](CO)C(=O)O; αMeC = C[C@](N)(CS)C(=O)O; NMeA = CN[C@@H](C)C(=O)O; Nle = CCCC[C@H](N)C(=O)O
Below, each entry is listed alongside its reported EC50.

>  <compound>
CCCC[C@@H]1NC(=O)[C@H](Cc2cccnc2)NC(=O)[C@H](CO)N(C)C(=O)[C@H](Cc2ccccc2)OC(=O)C23CC(CNC(=O)[C@H](Cc4cccnc4)N(C)C(=O)[C@H](CCCC)NC(=O)[C@H](Cc4ccccc4F)NC1=O)(C2)C3 [compound 118] (cyclo([3Pal][Nle][Phe(2-F)][Nle][NMe3Pal][X1][PhLac][NMeS]))

>  <EC50>
> 50.8 µM

$$$$
>  <compound>
C[C@H]1C(=O)N[C@@H](Cc2cncnc2)C(=O)N[C@@H](CC2CC2)C(=O)N[C@@H](Cc2ccccc2F)C(=O)NC2CC/C=C\CC[C@@H](C(=O)NCC34CC(C3)(C4)C(=O)O[C@@H](Cc3ccccc3)C(=O)N1C)N(C)C2=O

>  <EC50>
41.2 µM

$$$$
>  <compound>
CCCC[C@@H]1NC(=O)[C@H](Cc2ccc(F)nc2)NC(=O)[C@H](C)N(C)C(=O)[C@H](Cc2ccccc2)OC(=O)C23CC(CNC(=O)[C@H](Cc4ccccc4)N(C)C(=O)[C@H](CCCC)NC(=O)[C@H](Cc4ncccc4F)NC1=O)(C2)C3 [compound 228] (cyclo([NMeA][X25][Nle][X30][Nle][NMeF][X1][PhLac]))

>  <EC50>
> 50.8 µM

$$$$
>  <compound>
CCCCC[C@@H]1NC(=O)[C@H](Cc2ccc(OC)cc2)NC(=O)[C@H](CC2CCC2)NC(=O)[C@H](Cc2cncnc2)NC(=O)[C@H](CCCNC)N(C)C(=O)[C@H](Cc2ccccc2)NC(=O)CSC[C@@](C)(C(N)=O)NC(=O)[C@H](Cc2ccc(C)nc2)N(C)C1=O [compound 394] ({CH2CO}-F[NMeOrn(Me)][Ala(pyrimidin-5-yl)][Cba]Y(Me)[Ahp(2)][NMe3Pal(6-Me)][αMeC]-NH2; thioether N-8)

>  <EC50>
> 50.8 µM

$$$$
>  <compound>
CCCCC[C@@H]1NC(=O)[C@H](Cc2ccc(OC)cc2)NC(=O)[C@H](CC2CCC2)NC(=O)[C@H](Cc2cccnc2)NC(=O)[C@H](CCCNC(=N)N)NC(=O)[C@H](Cc2ccccc2)NC(=O)CSC[C@@](C)(C(N)=O)NC(=O)[C@H](Cc2cn(C)cn2)N(C)C1=O [compound 378] ({CH2CO}-FR[3Pal][Cba]Y(Me)[Ahp(2)][NMeHis(τ-Me)][αMeC]-NH2; thioether N-8)

>  <EC50>
> 50.8 µM

$$$$
>  <compound>
CC(C)CC[C@@H]1NC(=O)[C@H](Cc2ccccc2F)NC(=O)[C@H](CC2CC2)NC(=O)[C@H](Cc2cncnc2)NC(=O)[C@H](CCCF)N(C)C(=O)[C@H](Cc2ccccc2)OC(=O)C23CC(CNC(=O)[C@H](Cc4ccccc4)N(C)C1=O)(C2)C3 [compound 216] (cyclo([Ala(cPr)][Phe(2-F)][hLeu][NMeF][X1][PhLac][X35][Ala(pyrimidin-5-yl)]))

>  <EC50>
1.23 µM

$$$$
